Property: concentration at which the bladder compression muscle was significantly relaxed; scope: individual molecules
System: human urinary bladder compression muscle
Assay: Relaxation of carbachol-contracted human urinary bladder compression muscle
Assay type: cell-based
Conditions: contraction provoked by carbachol (0.5×10^−6 M); each compound alone

-- ask State its concentration at which the bladder compression muscle was significantly relaxed for this molecule: Cc1ccc(O)c([C@H](CCN(C(C)C)C(C)C)c2ccccc2)c1 [tolterodine, reference compound]
-- reply 10^−8 M

-- ask Look up concentration at which the bladder compression muscle was significantly relaxed of "CS(=O)(=O)Nc1cc([C@@H](O)CNCCOc2ccc3c4c([nH]c3c2)CCCC4)ccc1O" and report it.
-- reply 10^−7 M

-- ask Give a short answer stating reported concentration at which the bladder compression muscle was significantly relaxed for "CS(=O)(=O)Nc1cccc([C@@H](O)CNCCOc2ccc3c(c2)[nH]c2cc(O)ccc23)c1" .
-- reply 10^−7 M

-- ask Given the molecule "CS(=O)(=O)Nc1cc([C@@H](O)CNCCOc2ccc3c(c2)[nH]c2ccccc23)ccc1Cl" , write its reported concentration at which the bladder compression muscle was significantly relaxed.
-- reply 10^−6 M

-- ask For the molecule "CS(=O)(=O)Nc1cc([C@@H](O)CNCCOc2ccc3c(c2)[nH]c2ccccc23)ccc1O" , give its reported concentration at which the bladder compression muscle was significantly relaxed.
-- reply 10^−8 M

-- ask Give concentration at which the bladder compression muscle was significantly relaxed for the following molecule: "CS(=O)(=O)Nc1cc([C@@H](O)CNCCOc2ccc3c(c2)sc2ccccc23)ccc1O"
-- reply 10^−8 M

-- ask # return recorded concentration at which the bladder compression muscle was significantly relaxed for input "CS(=O)(=O)Nc1cc([C@@H](O)CNCCOc2ccc3c(c2)[nH]c2ccccc23)ccc1Br"
-- reply 10^−6 M

-- ask Look up concentration at which the bladder compression muscle was significantly relaxed of "CN(C)S(=O)(=O)Nc1cc([C@@H](O)CNCCOc2ccc3c(c2)oc2ccccc23)ccc1O" and report it.
-- reply 10^−7 M

-- ask Supply reported concentration at which the bladder compression muscle was significantly relaxed belonging to this molecule: CCCOC(C(=O)OC1CCN(C)CC1)(c1ccccc1)c1ccccc1 [propiverine, reference compound]
-- reply 10^−5 M

-- ask Item CCN(CC)CC#CCOC(=O)C(O)(c1ccccc1)C1CCCCC1 (stereo not drawn) [oxybutynin, reference compound] : provide concentration at which the bladder compression muscle was significantly relaxed
-- reply 10^−8 M

-- ask In one line, give reported concentration at which the bladder compression muscle was significantly relaxed of the entry "CN(C)S(=O)(=O)Nc1cc([C@@H](O)CNCCOc2ccc3c(c2)[nH]c2ccccc23)ccc1O" .
-- reply 10^−7 M

-- ask Fill in concentration at which the bladder compression muscle was significantly relaxed for record "CS(=O)(=O)Nc1cccc([C@@H](O)CNCCOc2ccc3c(c2)[nH]c2ccccc23)c1"
-- reply 10^−6 M
